Cited source for all entries: PubChem BioAssay

# protocol: PSAC antagonists in infected red cells, primary screen, cell-based, P. falciparum Indochina, OD700, 2 h (AID 1155);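 also: lysis reports solute entry through the parasite surface anion channel PSAC; channel blockers reduce lysis of infected cells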
# stated conditions: P. falciparum Indochina infected erythrocytes, osmotic lysis OD700; higher = more signal, called active from +8 up or from −8 down
Label rule, in plain words: z-score of 0.02 and up is 1, under 0.02 is 0.

CCCC[C@H]1CN2[C@@H](CC[C@@H](C)[C@@H]2c2ccc(Br)cc2)C(=O)O1	1
CCOC(=O)[C@H](Cc1ccccc1)NC(=O)CCC1CC(OC(=O)NCc2cccc3ccccc23)CC2(CCCC(COC(=O)NCCc3ccccc3OC)O2)O1 (some centres undefined)	1
COC(OC)[C@@H](C)[C@H](OC)[C@@H](C)[C@H](OC)c1ccccc1	0
COC(=O)[C@H](C)NC(=O)CCC1CC(OC(=O)NCc2ccc3c(c2)OCO3)CC2(CCCC(COC(=O)NCCC(C)C)O2)O1 (some centres undefined)	1
CC(=O)OC[C@H]1O[C@H](CC=NO[C@@H](C)c2cn([C@H](CO)Cc3ccccc3)nn2)C=C[C@@H]1OC(C)=O	0

Decide: z-score of "C=CC[C@@H]1C=C[C@H](ON=C(C)CCN2CCCCc3nc(C)c(C)cc32)[C@@H](CO)O1" >= 0.02?
1

Decide: z-score of "CC(C)[C@@H](OCc1ccccc1)[C@H](C)C=NOC[C@@H](O)[C@H]1O[C@@H]2OC(C)(C)O[C@@H]2[C@H]1O" >= 0.02?
0

Decide: z-score of "CON=C(C)CCN1CCc2nc(-c3ccccc3)c(-c3ccccc3)cc2C1" >= 0.02?
1

* * *

# protocol: small-molecule microarray binders of probe aEGFR, primary screen, biochemical, biotinylated probe, 635/667 nm fluorescence (AID 1097);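 also: probe is a biotinylated anti-EGFR antibody binding compounds printed on slides; score combines fluorescence near 667 nm and signal to noise of each spot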
# stated conditions: higher = more signal
readout: composite z-score
I only need the number, thanks.

O=C1C2=CC[C@H]3C(=O)N(c4ccc(F)cc4F)C(=O)[C@H]3[C@H]2[C@H](O)[C@@H]2O[C@H]12	-0.0967
CCOC(=O)[C@H](CC(C)C)NC(=O)CCC1CC(OC(=O)NCCc2ccc(F)cc2)CC2(CCCC(COC(=O)NCc3cccc(C(F)(F)F)c3)O2)O1 (some centres undefined)	0.0199
CC(C)CON=C1C[C@@H](O)[C@@H](O)[C@@H]2[C@@H]3C(=O)N(Cc4ccc5c(c4)OCO5)C(=O)[C@@H]3CC[C@@H]12	-0.192

Note: attention shifts to another entry.
Tell me composite z-score reported for COC(=O)[C@H](C)NC(=O)CCC1CC(OC(=O)NCc2cccc3ccccc23)CC2(CCCC(COC(=O)NCCCN3CCCC3=O)O2)O1 (some centres undefined)
0.074

* * *

# protocol: basal MM1S mitochondrial membrane potential changes, profiling panel, cell-based, JC-1 fluorescence, 24 h, 100 nL compound (AID 1170); also: test concentration not given here
# stated conditions: higher = more signal
Label rule, in plain words: z-score of 0.1 and up is Yes, under 0.1 is No.

The examples below pair each entry with its known result.
C#CCCCON=C1[C@H]2CCn3c(=O)n([C@@H](CC)c4ccccc4)c(=O)n3[C@H]2[C@H](O)[C@@H]2O[C@H]12	No
CCOC(=O)CCN1C(=O)[C@H]2[C@H]3[C@H](O)[C@H](O)CC(=NOCC=C(C)CCC=C(C)C)[C@@H]3CC[C@H]2C1=O	No

Query compound follows.
Decide: z-score of "C[C@@H]1CC[C@H]2C(=O)O[C@@H](COc3ccc(C(C)(C)C)cc3)CN2[C@H]1c1ccc(Br)cc1" >= 0.1?
Yes
